Measured values drawn from patent US9346761B2 for this set.

- MEASUREMENT TARGET: Full-length human PRMT8 (Homo sapiens, UniProt Q9NR22)
- Construct: Full-length human PRMT8 (NM_019854.4) isoform 1 transcript clone
- Sequence (Q9NR22 whole entry, canonical isoform): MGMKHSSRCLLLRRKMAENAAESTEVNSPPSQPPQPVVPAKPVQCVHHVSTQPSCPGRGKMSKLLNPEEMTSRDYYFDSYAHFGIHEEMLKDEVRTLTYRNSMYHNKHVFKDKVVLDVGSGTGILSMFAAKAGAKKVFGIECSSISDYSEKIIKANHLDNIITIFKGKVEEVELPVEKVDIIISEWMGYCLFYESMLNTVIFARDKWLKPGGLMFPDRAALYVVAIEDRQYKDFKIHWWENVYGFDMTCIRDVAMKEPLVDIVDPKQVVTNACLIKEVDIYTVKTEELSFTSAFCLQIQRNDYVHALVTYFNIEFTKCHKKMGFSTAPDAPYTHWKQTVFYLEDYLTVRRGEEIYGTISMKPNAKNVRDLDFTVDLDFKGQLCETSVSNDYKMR
- MEASUREMENT DESCRIPTION: PRMT8 biochemical assay (3H-SAM Flashplate, peptide substrate)
PROPERTY NAME: IC50

// worked examples, IC50 included
{"columns": ["COMPOUND STRING", "IC50"],
 "data": [
  ["CNCCN(C)Cc1c[nH]nc1-c1ccc(Oc2ccccc2)c(C#N)c1", "101 to 1000 nM"],
  ["CN(CCN)Cc1c[nH]nc1-c1cccc(Cl)c1", "101 to 1000 nM"],
  ["CN(CCN)Cc1c[nH]nc1-c1ccc(F)cc1F", "1010 to 3000 nM"],
  ["CN(CCN)Cc1cnn(C2COC2)c1-c1ccc(F)cc1", "3010 to 10000 nM"],
  ["CN(CCN)Cc1cn(CC2CCOCC2)nc1-c1ccc(F)cc1", "> 10000 nM"],
  ["CN(CCN1CCCC1)Cc1c[nH]nc1-c1ccc(C#N)cc1", "> 10000 nM"]
]}

Could you tell me IC50 for each of these compounds? They are listed below.
1. CNCCN(C)Cc1c[nH]nc1-c1cccc(C(C)=O)c1
2. CNCCN(C)Cc1c[nH]nc1-c1ccc(O)cc1
3. CN(CCN)Cc1c[nH]nc1-c1cccc(N(C)C)c1
4. CN(CCN)Cc1c[nH]nc1-c1ccc(F)c(Cl)c1

["101 to 1000 nM", "101 to 1000 nM", "101 to 1000 nM", "101 to 1000 nM"]

###

- MEASUREMENT TARGET: Full-length human PRMT3 (Homo sapiens)
- Sequence (O60678 with tags, fused parts or gaps): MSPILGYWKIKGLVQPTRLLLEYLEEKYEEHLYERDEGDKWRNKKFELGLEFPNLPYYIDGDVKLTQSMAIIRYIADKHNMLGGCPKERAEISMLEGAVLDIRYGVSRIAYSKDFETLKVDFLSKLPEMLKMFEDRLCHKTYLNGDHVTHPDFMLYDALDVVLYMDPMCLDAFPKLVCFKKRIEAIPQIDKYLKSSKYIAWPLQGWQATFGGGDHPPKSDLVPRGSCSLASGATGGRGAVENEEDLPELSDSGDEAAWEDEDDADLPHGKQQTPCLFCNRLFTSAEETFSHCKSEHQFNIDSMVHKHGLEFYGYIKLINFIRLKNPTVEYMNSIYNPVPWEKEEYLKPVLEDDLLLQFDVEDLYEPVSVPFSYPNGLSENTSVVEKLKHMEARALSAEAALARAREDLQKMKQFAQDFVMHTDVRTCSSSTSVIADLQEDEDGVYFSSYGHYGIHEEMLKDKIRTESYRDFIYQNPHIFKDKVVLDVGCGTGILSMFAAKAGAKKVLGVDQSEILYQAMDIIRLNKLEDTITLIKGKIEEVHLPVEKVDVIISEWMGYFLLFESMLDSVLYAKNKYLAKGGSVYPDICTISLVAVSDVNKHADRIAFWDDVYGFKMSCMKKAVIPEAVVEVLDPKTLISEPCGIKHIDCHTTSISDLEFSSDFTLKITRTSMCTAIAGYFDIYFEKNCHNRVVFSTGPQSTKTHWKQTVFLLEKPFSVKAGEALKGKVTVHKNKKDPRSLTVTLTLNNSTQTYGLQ
PROPERTY NAME: IC50

// worked examples, IC50 included
{"columns": ["COMPOUND STRING", "IC50"],
 "data": [
  ["CN(CCN)Cc1n[nH]cc1-c1ccc(C2CC2)cc1", "> 10 µM"],
  ["CN(CCN)Cc1n[nH]cc1-c1ccc(OC2CC2)cc1", "3.01 to 10 µM"],
  ["NCCN(CCO)Cc1c[nH]nc1-c1ccc(F)cc1", "> 10 µM"],
  ["CNCCN(C)Cc1c[nH]nc1-c1cccc(OC)c1", "> 10 µM"],
  ["CN(CCN)Cc1c[nH]nc1-c1ccc(C2CCOCC2)cc1", "0.101 to 1 µM"]
]}

Could you tell me IC50 for each of these compounds? They are listed below.
1. CN(CCN)Cc1c[nH]nc1-c1ccc(OCC(F)(F)F)cc1
2. CNCCN(C)Cc1c[nH]nc1-c1cccc2ccccc12
3. Cc1ccc(-c2n[nH]cc2CN(C)CCN)c(Cl)c1
4. CCOC(=O)c1cccc(-c2n[nH]cc2CN(C)CCN)c1
5. CN(CCN)Cc1cn(C)nc1-c1ccc(F)cc1
6. CNCCN(C)Cc1c[nH]nc1-c1ccc(C(=O)c2ccccc2)cc1
7. CC(C)Cc1ccc(-c2c[nH]nc2CN(C)CCN)cc1

1. 3.01 to 10 µM
2. 3.01 to 10 µM
3. 3.01 to 10 µM
4. > 10 µM
5. > 10 µM
6. 3.01 to 10 µM
7. 3.01 to 10 µM

Could you tell me IC50 for each of these compounds? They are listed below.
1. CN(CCN)Cc1c[nH]nc1-c1ccc(OC2CC2)cc1
2. CCN(CCN)Cc1c[nH]nc1-c1ccc(F)cc1
3. COc1ccc(-c2n[nH]cc2CN(C)CCN)c(Cl)c1
4. CN(CCN1CCCC1)Cc1c[nH]nc1-c1ccc(C#N)cc1
5. COc1ccc(-c2n[nH]cc2CN(C)CCN)cc1

1. 3.01 to 10 µM
2. 3.01 to 10 µM
3. 3.01 to 10 µM
4. > 10 µM
5. 3.01 to 10 µM

Could you tell me IC50 for each of these compounds? They are listed below.
1. CCN(C)C(=O)c1ccc(-c2n[nH]cc2CN(C)CCN)cc1
2. CN(CCN)Cc1n[nH]cc1-c1ccc(C#N)cc1
3. Cc1ccc(-c2n[nH]cc2CN(C)CCN)cc1Cl
4. CCCc1ccc(-c2n[nH]cc2CN(C)CCNC)cc1

1: > 10 µM; 2: 3.01 to 10 µM; 3: 1.01 to 3 µM; 4: 3.01 to 10 µM
